Recorded IDO1 (STD-NMR hit flag) by entry
Biological target: IDO1 (1-435) (Homo sapiens, UniProt P14902)
Construct: His-tag of pET15b with TEV site (thrombin site replaced) (cleaved yes); made in house; host or cells: E. coli Rosetta 2 (DE3) pLysS
Sequence (P14902 whole entry): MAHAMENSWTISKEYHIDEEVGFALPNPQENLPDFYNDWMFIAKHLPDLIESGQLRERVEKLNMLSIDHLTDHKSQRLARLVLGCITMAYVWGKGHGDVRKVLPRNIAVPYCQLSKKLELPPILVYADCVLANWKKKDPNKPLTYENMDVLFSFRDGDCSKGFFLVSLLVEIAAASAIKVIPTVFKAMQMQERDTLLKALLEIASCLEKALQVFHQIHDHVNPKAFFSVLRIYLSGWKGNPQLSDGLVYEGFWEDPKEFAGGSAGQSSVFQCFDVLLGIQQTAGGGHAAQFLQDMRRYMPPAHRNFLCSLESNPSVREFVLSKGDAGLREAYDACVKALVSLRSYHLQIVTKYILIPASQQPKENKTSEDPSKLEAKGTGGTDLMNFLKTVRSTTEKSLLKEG
Test: STD-NMR fragment screening, IDO1
Format: binding
Details: 1 = hit, 0 = no hit
VALUE KIND: IDO1 (STD-NMR hit flag)

{"SMILES DATA": "O=C(O)c1cc(Cl)nnc1Cl", "VALUE KIND": "IDO1 (STD-NMR hit flag)", "QUANTITATIVE READOUT": 0}
{"SMILES DATA": "Cn1ncc(I)c1C(=O)NN", "VALUE KIND": "IDO1 (STD-NMR hit flag)", "QUANTITATIVE READOUT": 0}
{"SMILES DATA": "Cc1c(Cl)c([N+](=O)[O-])nn1CC(=O)O", "VALUE KIND": "IDO1 (STD-NMR hit flag)", "QUANTITATIVE READOUT": 1}
{"SMILES DATA": "Cn1nc(Br)c(C(=O)NCC(=O)O)c1N", "VALUE KIND": "IDO1 (STD-NMR hit flag)", "QUANTITATIVE READOUT": 0}
{"SMILES DATA": "Oc1cccc(O)c1Br", "VALUE KIND": "IDO1 (STD-NMR hit flag)", "QUANTITATIVE READOUT": 0}
{"SMILES DATA": "Brc1cccc2c1CNC2", "VALUE KIND": "IDO1 (STD-NMR hit flag)", "QUANTITATIVE READOUT": 0}
{"SMILES DATA": "COC(=O)c1cc(N)c(Cl)s1", "VALUE KIND": "IDO1 (STD-NMR hit flag)", "QUANTITATIVE READOUT": 0}
{"SMILES DATA": "Nc1ccc(Br)c(C(=O)O)n1", "VALUE KIND": "IDO1 (STD-NMR hit flag)", "QUANTITATIVE READOUT": 0}
{"SMILES DATA": "Brc1cnc(N2CCNCC2)nc1", "VALUE KIND": "IDO1 (STD-NMR hit flag)", "QUANTITATIVE READOUT": 0}
{"SMILES DATA": "CCn1ncc(Br)c1C(N)=O", "VALUE KIND": "IDO1 (STD-NMR hit flag)", "QUANTITATIVE READOUT": 0}
{"SMILES DATA": "Cn1c2nc(Br)nc-2c(O)n(C)c1=O", "VALUE KIND": "IDO1 (STD-NMR hit flag)", "QUANTITATIVE READOUT": 1}
